Attribution: patent US7754743B2

# Target Of Assay: recombinant human liver GK (Homo sapiens)
# Sequence (P35557 1-466 isoform P35557-2): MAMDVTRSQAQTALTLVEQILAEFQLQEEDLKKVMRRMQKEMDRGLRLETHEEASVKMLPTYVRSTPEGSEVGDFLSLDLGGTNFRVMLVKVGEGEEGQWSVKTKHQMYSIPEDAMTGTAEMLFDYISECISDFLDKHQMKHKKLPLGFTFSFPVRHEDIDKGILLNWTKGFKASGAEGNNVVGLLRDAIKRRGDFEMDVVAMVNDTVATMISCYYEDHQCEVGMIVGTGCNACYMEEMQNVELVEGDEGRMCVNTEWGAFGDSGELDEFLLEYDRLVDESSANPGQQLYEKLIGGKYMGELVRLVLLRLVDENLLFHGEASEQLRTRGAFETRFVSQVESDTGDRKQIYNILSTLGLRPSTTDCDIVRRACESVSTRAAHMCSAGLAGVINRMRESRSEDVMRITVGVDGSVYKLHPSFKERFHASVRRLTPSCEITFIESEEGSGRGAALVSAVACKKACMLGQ
# Method Notes: Glucokinase (GK) activation assay, G6PDH-coupled thio-NADH absorbance at 405 nm
# Experimental Conditions: final glucose concentration 2.5 mM; 30° C.
pEC50: −log10 of the molar value.
Readout: pEC50

| Item Smiles | Result Value |
| --- | --- |
| COC(=O)NCc1ccc(Oc2cc(OC(C)C)cc(C(=O)Nc3nccs3)c2)cc1 | 6.28 |
| Cc1csc(NC(=O)c2cc(Oc3ccc(S(C)(=O)=O)cc3)cc(OC(C)C)c2)n1 | 6.60 |
